// values below are reported EC50
- testedOn: human GPR40 (Homo sapiens)
- Sequence (O14842 whole entry): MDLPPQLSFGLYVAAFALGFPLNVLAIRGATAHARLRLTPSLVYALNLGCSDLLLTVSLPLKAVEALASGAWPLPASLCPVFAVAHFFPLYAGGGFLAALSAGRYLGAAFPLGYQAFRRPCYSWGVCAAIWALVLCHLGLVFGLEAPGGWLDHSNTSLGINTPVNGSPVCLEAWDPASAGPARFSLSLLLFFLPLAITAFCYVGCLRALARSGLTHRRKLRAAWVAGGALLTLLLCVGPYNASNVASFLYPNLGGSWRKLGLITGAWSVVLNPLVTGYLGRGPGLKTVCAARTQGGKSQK
- assayName: Cell based aequorin assay using human GPR40
- conditionLabel: CHO cells stably transfected with GPR40 and aequorin; 0.01% HSA; aequorin luminescence; read-out: Relative EC50

Answered examples (2):
recordSmiles: CCOc1cccc(-c2ccc(COc3ccc([C@H](CC(=O)O)c4ncnn4C)cc3)cc2)c1
testedOn: human GPR40 (Homo sapiens)
EC50: 100 to 1000 nM
--
recordSmiles: Cc1ccc(-c2nc(C)c(COc3ccc([C@H](CC(=O)O)C(=O)N(C)C)cc3)s2)cc1
testedOn: human GPR40 (Homo sapiens)
EC50: 10 to 100 nM

Q: Could you share which EC50 value was measured for `Cn1nnnc1[C@@H](CC(=O)O)c1ccc(OCc2cccc(-c3ccc(C(F)(F)F)cc3)c2)cc1` ?
Ans: 10 to 100 nM

Q: Could you share which EC50 value was measured for `CCCCOc1ccc(C)cc1-c1ccc(COc2ccc([C@H](CC(=O)O)C(=O)N(C)C)cc2)cc1` ?
Ans: 10 to 100 nM
